Target: T1, P. vivax Reticulocyte Binding Protein 2b, residues 161–1454 (P. vivax strain Salvador I, UniProt A5K736 161-1454, DyLight 488 (NHS ester) in the FRET assay; biotin (BirA site) in the competition ELISA between human mAbs)
T1 chain: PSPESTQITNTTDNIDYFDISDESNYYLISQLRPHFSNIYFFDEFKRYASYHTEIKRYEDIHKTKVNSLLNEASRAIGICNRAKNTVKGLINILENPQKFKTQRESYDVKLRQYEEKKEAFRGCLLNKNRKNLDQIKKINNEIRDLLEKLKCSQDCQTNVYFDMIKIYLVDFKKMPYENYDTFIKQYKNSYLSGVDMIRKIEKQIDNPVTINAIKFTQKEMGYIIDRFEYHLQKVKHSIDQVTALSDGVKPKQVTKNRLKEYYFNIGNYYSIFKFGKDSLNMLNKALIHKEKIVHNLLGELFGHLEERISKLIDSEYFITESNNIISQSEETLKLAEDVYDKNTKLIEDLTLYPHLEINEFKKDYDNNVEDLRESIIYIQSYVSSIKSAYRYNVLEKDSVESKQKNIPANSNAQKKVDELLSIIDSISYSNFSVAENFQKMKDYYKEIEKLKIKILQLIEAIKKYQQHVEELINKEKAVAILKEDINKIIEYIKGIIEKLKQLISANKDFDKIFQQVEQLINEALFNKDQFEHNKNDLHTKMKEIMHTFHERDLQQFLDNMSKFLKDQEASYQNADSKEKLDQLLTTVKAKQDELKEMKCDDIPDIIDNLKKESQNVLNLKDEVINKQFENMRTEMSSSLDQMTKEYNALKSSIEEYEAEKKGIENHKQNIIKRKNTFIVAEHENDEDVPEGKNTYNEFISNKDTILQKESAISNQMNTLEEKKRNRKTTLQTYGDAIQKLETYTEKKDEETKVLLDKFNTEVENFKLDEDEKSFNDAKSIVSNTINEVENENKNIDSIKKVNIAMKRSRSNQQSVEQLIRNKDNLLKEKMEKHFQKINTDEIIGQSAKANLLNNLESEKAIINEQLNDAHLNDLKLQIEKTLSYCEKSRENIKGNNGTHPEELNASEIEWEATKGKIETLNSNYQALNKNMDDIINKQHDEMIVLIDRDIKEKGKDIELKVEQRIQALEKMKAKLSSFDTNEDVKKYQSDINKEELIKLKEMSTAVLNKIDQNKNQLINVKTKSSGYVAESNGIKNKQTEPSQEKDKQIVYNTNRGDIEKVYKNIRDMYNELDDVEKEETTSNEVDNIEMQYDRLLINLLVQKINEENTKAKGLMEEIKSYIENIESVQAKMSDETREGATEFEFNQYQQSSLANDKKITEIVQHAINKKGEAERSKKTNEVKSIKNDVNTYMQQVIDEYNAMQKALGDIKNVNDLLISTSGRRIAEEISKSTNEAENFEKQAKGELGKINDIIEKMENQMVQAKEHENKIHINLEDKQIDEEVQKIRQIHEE
Assay: BLI; representative sensorgram
pKd: −log10 of the molar value.
pKd by entry:

>  <Binder>
PvRBP2b human mAb 237235 (antibody, V domains shown) VH: QVQLVESGGGVVQPGRSLRLSCAASGFMFNSYGMHWVRQAPGKGLEWMAFISYDGSDDYYGDSVKGRITISRDNSKNTLFLHINSLRTEDTAVYYCAKESNYGENAFDVWGHGTMVTVSS VL: QSALTQPRSVSGSPGQSVTISCTGTSNDVGFYNFVSWYQHHPGKAPKLMIYDVTERPSGVPDRFSGSKSGNTASLTISGLQAEDEAEYYCCSYAGTYTFVFGHGTKVTVL

>  <pKd>
10.00

$$$$
>  <Binder>
PvRBP2b human mAb 251249 (antibody, V domains shown) VH: EVQLVESGGGLVKPGGSLRLSCEASGFLFSSYSMNWVRQAPGKGLEWVSSITGYSSEVFYTDSVKGRFTVSRDNSKNSLYLQMDSLRAEDTAVYYCARALTIFGVVITDYWFFDLWGRGTLVTVSS VL: EIVLTQSPATLSLSPGDRATLSCRASQSVTTFLAWYQQKPGQAPRLLIYDVSNRATGIPARFSGSGSGTDFTLTISSLEPEDFAVYYCQQRSNWGLTFGGGTKVEIK

>  <pKd>
> 11.00

$$$$
>  <Binder>
PvRBP2b human mAb 273264 (antibody, V domains shown) VH: EVQLLESGGGLVRPGGSQRLSCAASGFTFTPYAMTWVRQAPGKGLEWLSTISGSGGSTSYADSVKGRFTISRDNSKNILYLQMDSLRAEDTALYYCTKDKDEYTFGHNAFDVWGRGTMVTVSS VL: SYELTQAPSVSVAPGQTARITCGGDNIGRTSVHWYQQKPGQAPVLVIFYDNDRPSGIPERFSGSNSGNMATLSISRVEVGDEADYYCQVWDSNNDHPVFGGGTKLTVV

>  <pKd>
> 11.00

$$$$
